Test system: L-pantolactone hydrolase from Lu5351
Assay: Substrate specificity of purified L-pantolactone hydrolase from Lu5351 (HPLC)
Format: biochemical, Agrobacterium radiobacter
Settings: substrate 150 mN; 0.1 U/ml enzyme, 150 mM Pipes pH 6.8
recorded.endpoint: Activity

O=C1OC(C(O)CO)C(O)C1O [L-(+)-Gulono-γ-lactone]	++ (++: >50 U/l)
CCOC(=O)C(C)O (stereo not drawn) [Ethyl (L)(−)-lactate]	++ (++: >50 U/l)

###

For each record, write down the corresponding Relative Activity.
Tested on: L-pantolactone hydrolase from Burkholderia caryophylli Lu681
Assay: Inhibition and activation by added substances, standard assay, Lu681 enzyme
Assay type: biochemical
Answers are plain numbers, in %.

Past entries and their recorded results:
[Cl-].[K+]	99
CC#N	119
O=S(=O)(F)Cc1ccccc1	113
[Cl][Fe][Cl]	104
[Cl][Mn][Cl]	100
[Cl][Ni][Cl]	96

Proceed to the following item.
I have this compound here, OO , and I need its recorded Relative Activity.
95
